melting point by entry:

| compound | melting point |
| --- | --- |
| FC(F)(F)c1ccc(/C=C/c2nc(COc3ccc(-c4nc(Cn5ccnn5)cs4)cc3)cs2)cc1 | 146 to 148 °C |
| Fc1cc(C(F)(F)F)ccc1/C=C/c1nc(COc2ccc(-c3nc(Cn4ccnc4)co3)cc2)co1 | 150 to 153 °C |
| [O-][S+](c1ccc(/C=C/c2nc(COc3ccc(-c4nc(Cn5ccnn5)co4)cc3)co2)cc1)C(F)(F)F (stereo not drawn) | 167 to 169 °C |

###

# melting point annotations
measure name: melting point

| molecule | measure name | data value |
| --- | --- | --- |
| COc1ccc(/C=C/c2nc(COc3ccc(-c4nc(Cn5ccnn5)co4)cc3)co2)cc1 [Example 1] | melting point | 178 °C |
| [O-][S+](c1ccc(/C=C/c2nc(COc3ccc(-c4nc(Cn5ccnc5)co4)cc3)co2)cc1)C(F)(F)F (stereo not shown) [Example 17] | melting point | 134 to 136 °C |
| FC(F)(F)Sc1ccc(/C=C/c2nc(COc3ccc(-c4nc(Cn5ccnc5)co4)cc3)co2)cc1 [Example 16] | melting point | 144 to 145 °C |
| OCCc1nccn1Cc1coc(-c2ccc(OCc3coc(/C=C/c4ccc(Cl)cc4F)n3)cc2)n1 [Example 18] | melting point | 170 to 172 °C |
| FC(F)(F)c1ccc(/C=C/c2nc(COc3ccc(-c4nc(Cn5ccnn5)co4)cc3)co2)cc1 [Example 4] | melting point | 170 °C |
| Fc1cc(C(F)(F)F)ccc1/C=C/c1nc(COc2ccc(-c3nc(Cn4ccnc4)cs3)cc2)co1 [Example 12] | melting point | 133 to 135 °C |
| Fc1cc(C(F)(F)F)ccc1/C=C/c1nc(COc2ccc(-c3nc(Cn4ccnn4)cs3)cc2)co1 [Example 8] | melting point | 180 to 182 °C |
| FC(F)(F)c1ccc(/C=C/c2nc(COc3ccc(-c4nc(Cn5ccnn5)co4)cc3)cs2)cc1 [Example 10] | melting point | 179 to 181 °C |
| Clc1ccc(/C=C/c2nc(COc3ccc(-c4nc(Cn5ccnn5)co4)cc3)co2)cc1 [Example 5] | melting point | 208 to 210 °C |
| Fc1cc(Cl)ccc1/C=C/c1nc(COc2ccc(-c3nc(Cn4ccnc4)co3)cc2)co1 [Example 14] | melting point | 166 to 167 °C |
| Fc1cc(C(F)(F)F)ccc1/C=C/c1nc(COc2ccc(-c3nc(Cn4ccnn4)co3)cc2)co1 [Example 6] | melting point | 152 to 154 °C |
| FC(F)(F)Oc1ccc(/C=C/c2nc(COc3ccc(-c4nc(Cn5ccnn5)co4)cc3)co2)cc1 [Example 2] | melting point | 166 to 172 °C |
| FS(F)(F)(F)(F)c1ccc(/C=C/c2nc(COc3ccc(-c4nc(Cn5ccnn5)co4)cc3)co2)cc1 [Example 19] | melting point | 172 to 174 °C |
| FC(F)(F)Sc1ccc(/C=C/c2nc(COc3ccc(-c4nc(Cn5ccnn5)co4)cc3)co2)cc1 [Example 3] | melting point | 172 to 173 °C |
| Fc1cc(Cl)ccc1/C=C/c1nc(COc2ccc(-c3nc(Cn4ccnn4)co3)cc2)co1 [Example 9] | melting point | 193 to 194 °C |
| FC(F)(F)c1ccc(/C=C/c2nc(COc3ccc(-c4nc(Cn5ccnn5)cs4)cc3)co2)cc1 [Example 7] | melting point | 163 to 165 °C |

All values here come from patent US7259262B2.
